tested on: Human immunodeficiency virus 1; assay: Antiviral activity against HIV1 virions derived from HIV/[…] or HIV/HA virions infected 293T cells using human A549 cells as target cells assessed as inhibition of viral replication using compound pre-mixed virions followed by incubation with target cells for 24 hrs by luciferase reporter gene assay based defective HIV1 pseudoviral assay; type: functional, organism-based; details: Human immunodeficiency virus 1, 24 h
pIC50: −log10 of the molar value.
propertyMeasured: pIC50

molecule	pIC50
CO/N=C(\c1ccc(OC)c(OC)c1)c1cc(OC)c(OC)c(OC)c1	< 5.00
COc1cc2c(cc1OC)C(c1cc(OC)c(OC)c(OC)c1)CCC2 (racemic)	5.17

From here, focus on the item given below.
Endpoint output: pIC50 of COc1ccc(/C(=N/O)c2cc(OC)c(OC)c(OC)c2)cc1OC . Value? < 5.00

* * *

system: Human immunodeficiency virus 1; assay: Antiviral activity against HIV1 virions derived from HIV/[…] or HIV/HA virions infected 293T cells using human A549 cells as target cells assessed as inhibition of viral replication using compound pre-mixed virions followed by incubation with target cells for 24 hrs by luciferase reporter gene assay based defective HIV1 pseudoviral assay; assay type: functional, organism-based; settings: Human immunodeficiency virus 1, 24 h
propertyMeasured: pIC50
Please express pIC50 as -log10 of the molar concentration.

Worked set:
compound	pIC50
COc1cc2c(cc1OC)[C@H](c1cc(OC)c(OC)c(OC)c1)[C@@H](C)C2	6.47
CCC1CCc2cc(OC)c(OC)cc2N1c1cc(OC)c(OC)c(OC)c1 (racemic)	6.14
COc1cc2c(cc1OC)[C@H](c1cc(OC)c(OC)c(OC)c1)[C@@H](C)CC2	7.05

Endpoint output: pIC50 of COc1cc2c(cc1OC)[C@H](c1cc(OC)c(OC)c(OC)c1)[C@@H](C)[C@@H](C)C2 . Value? 6.80

Endpoint output: pIC50 of COc1cc2c(cc1OC)N(c1cc(OC)c(OC)c(OC)c1)C(C)CC2 (racemic) . Value? 6.03

Endpoint output: pIC50 of COc1cc2c(cc1OC)N(c1cc(OC)c(OC)c(OC)c1)CCC2 . Value? 5.30

Endpoint output: pIC50 of COc1ccc([C@H]2c3cc(OC)c(OC)cc3C[C@@H]2C)cc1OC . Value? 5.35

* * *

system: Human immunodeficiency virus 1; test: Resistance index, ratio of IC50 for antiviral activity against HIV1 virions containing reverse transcriptase K103N mutant derived from HIV/[…] or HIV/HA virions infected 293T cells using human A549 cells as target cells to IC50 for antiviral activity against wild type HIV1 virions derived from HIV/[…] or HIV/HA virions infected 293T cells using human A549 cells as target cells; format: functional
propertyMeasured: Ratio IC50
API note: the answer field is a bare number with no unit suffix.

compound	Ratio IC50
COc1cc([C@H]2c3c(cc(OC)c(OC)c3OC)C[C@H](C)[C@@H]2C)cc(OC)c1OC	1.1
Cc1ccnc2c1NC(=O)c1cccnc1N2C1CC1	70
COc1cc2c(cc1OC)N(c1cc(OC)c(OC)c(OC)c1)C(C)CC2 (racemic)	1.5
COc1cc2c(cc1OC)[C@H](c1cc(OC)c(OC)c(OC)c1)[C@@H](C)[C@@H](C)C2	1.1
COc1ccc([C@H]2c3cc(OC)c(OC)cc3C[C@H](C)[C@@H]2C)cc1OC	1.6

Endpoint output: Ratio IC50 of COc1cc2c(cc1OC)[C@@H](c1cc(OC)c(OC)c(OC)c1)[C@H](C)CC2 . Value? 1.7

Endpoint output: Ratio IC50 of COc1cc2c(cc1OC)[C@H](c1cc(OC)c(OC)c(OC)c1)[C@@H](C)CC2 . Value? 1.7

* * *

Quick list: pIC50 per entry.
test system: Human immunodeficiency virus 1; assay: Antiviral activity against HIV1 virions derived from HIV/[…] or HIV/HA virions infected 293T cells using human A549 cells as target cells assessed as inhibition of viral replication using compound pre-mixed virions followed by incubation with target cells for 24 hrs by luciferase reporter gene assay based defective HIV1 pseudoviral assay; format: functional, organism-based; conditions: Human immunodeficiency virus 1, 24 h
Please express pIC50 as -log10 of the molar concentration.

Worked set:
compound	propertyMeasured	numericResult
COc1ccc([C@H]2c3cc(OC)c(OC)cc3C[C@H](C)[C@@H]2C)cc1OC	pIC50	6.07
COc1cc2c(cc1OC)[C@@H](c1cc(OC)c(OC)c(OC)c1)[C@H](C)CC2	pIC50	5.99
COc1cc([C@H]2c3c(cc(OC)c(OC)c3OC)C[C@H](C)[C@@H]2C)cc(OC)c1OC	pIC50	6.16
CCCC1CCc2cc(OC)c(OC)cc2N1c1cc(OC)c(OC)c(OC)c1 (racemic)	pIC50	5.89
Cc1ccnc2c1NC(=O)c1cccnc1N2C1CC1 [NEVIRAPINE]	pIC50	7.89

Endpoint output: pIC50 of Nc1ccn([C@@H]2CS[C@H](CO)O2)c(=O)n1 [LAMIVUDINE] . Value? 6.29

* * *

Quick list: IC50 per entry.
tested on: Human immunodeficiency virus 1; test: Antiviral activity against HIV1 virions derived from HIV/[…] or HIV/HA virions infected 293T cells using human A549 cells as target cells assessed as inhibition of viral replication using compound pre-mixed virions followed by incubation with target cells for 24 hrs by luciferase reporter gene assay based defective HIV1 pseudoviral assay; assay type: functional, organism-based; conditions: Human immunodeficiency virus 1, 24 h

Worked set:
entrySmiles	tgt	IC50
COc1ccc(C(=O)c2cc(OC)c(OC)c(OC)c2)cc1OC	Human immunodeficiency virus 1	> 10 µM
COc1cc2c(cc1OC)N(c1cc(OC)c(OC)c(OC)c1)C(=O)CC2	Human immunodeficiency virus 1	> 10 µM

From here, focus on the item given below.
Form entry - test system: Human immunodeficiency virus 1; read-out: IC50; compound: COc1cc2c(cc1OC)[C@@H](c1cc(OC)c(OC)c(OC)c1)[C@H](C)[C@@H](C)C2 > 10 µM

* * *

tested on: Human immunodeficiency virus 1; assay: Antiviral activity against HIV1 virions derived from HIV/[…] or HIV/HA virions infected 293T cells using human A549 cells as target cells assessed as inhibition of viral replication using compound pre-mixed virions followed by incubation with target cells for 24 hrs by luciferase reporter gene assay based defective HIV1 pseudoviral assay; assay type: functional, organism-based; conditions: Human immunodeficiency virus 1, 24 h
pIC50: −log10 of the molar value.
propertyMeasured: pIC50

Worked set:
entrySmiles	propertyMeasured	result
COc1ccc([C@@H]2c3cc(OC)c(OC)cc3C[C@H](C)[C@H]2C)cc1OC	pIC50	< 5.00
COc1cc(CCC(=O)N2C(=O)OC[C@@H]2Cc2ccccc2)cc(OC)c1OC	pIC50	< 5.00

Endpoint output: pIC50 of COc1cc2c(cc1OC)[C@@H](c1ccc3c(c1)OCO3)[C@H](C)[C@@H](C)C2 . Value? < 5.00

Values from ChEMBL document CHEMBL4190384
